- Target: human proteinase 3 (Homo sapiens)
- Construct: purchased Elastin Products Company, USA
- Sequence (P24158 28-248): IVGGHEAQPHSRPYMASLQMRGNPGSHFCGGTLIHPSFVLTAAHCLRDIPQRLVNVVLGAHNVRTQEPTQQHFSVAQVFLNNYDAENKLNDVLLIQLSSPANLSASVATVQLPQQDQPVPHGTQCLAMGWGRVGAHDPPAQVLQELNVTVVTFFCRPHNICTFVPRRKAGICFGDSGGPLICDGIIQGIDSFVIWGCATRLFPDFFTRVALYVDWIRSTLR
- Test summary: Inhibition of human proteinase 3 (substrate Boc-Ala-Ala-Nva-SBzl)
- Assay type: biochemical
- Test conditions: ratio of hPr3 IC50 to hNE IC50
Where a SMILES comes first, the peptide text is derived from it. [ ]: non-standard residue; d: D form. Gly(octyl) = CCCCCCCC[C@H](N)C(=O)O; N(CH2CH2COOH)Gly = O=C(O)CCNCC(=O)O; AllylGly = C=CC[C@H](N)C(=O)O; Dap = NC[C@H](N)C(=O)O
Test readout: hNE/hPr3 selectivity
Write no unit; give the number alone.

>>> assay_result("CCCCCCCC[C@@H]1NC(=O)[C@@H]2CCCN2C(=O)[C@H]2CCCN2C(=O)[C@H](Cc2ccc(O)cc2)NC(=O)[C@H](CCCCN)NC(=O)[C@H](CCC(N)=O)NC(=O)[C@@H]2CCCN2C(=O)[C@@H]2CCCN2C(=O)[C@H]([C@@H](C)CC)NC(=O)[C@H](CO)NC(=O)[C@H](C)NC(=O)[C@H]([C@@H](C)O)NC(=O)[C@H](CNC(=O)[C@@H](N)Cc2ccccc2)NC1=O [Example 14] (cyclo([Gly(octyl)][Dap](Phe)TASIPPQKY[dP]P))")
1733
>>> assay_result("C=CC[C@@H]1NC(=O)[C@H]([C@@H](C)O)NC(=O)[C@H](CCC(=O)O)NC(=O)[C@H](CCC(=O)N[C@@H](Cc2ccccc2)C(=O)O)NC(=O)[C@@H]2CCCN2C(=O)[C@H]2CCCN2C(=O)[C@H](Cc2ccc(O)cc2)NC(=O)[C@H](CCCCN)NC(=O)[C@H](CCC(N)=O)NC(=O)[C@@H]2CCCN2C(=O)[C@@H]2CCCN2C(=O)[C@H]([C@@H](C)CC)NC(=O)[C@H](CO)NC1=O [Example 17] (cyclo(E(Phe)ET[AllylGly]SIPPQKY[dP]P))")
4013

Moving on to another molecule below.
Prompt line: Look up human proteinase 3 (Homo sapiens) data: hNE/hPr3 selectivity of CCCCCCCC[C@@H]1NC(=O)[C@@H]2CCCN2C(=O)[C@H]2CCCN2C(=O)[C@H]([C@@H](C)O)NC(=O)[C@H](CCCCN)NC(=O)[C@H](CCC(N)=O)NC(=O)[C@@H]2CCCN2C(=O)CN(CCC(=O)O)C(=O)[C@H]([C@@H](C)CC)NC(=O)[C@H](CO)NC(=O)[C@H](C)NC(=O)[C@H]([C@@H](C)O)NC(=O)[C@H](CCC(=O)O)NC1=O [Example 7] (cyclo([Gly(octyl)]ETASI[N(CH2CH2COOH)Gly]PQKT[dP]P)) , then report it.
Response line: 305

* * *

- Target: human neutrophil elastase (Homo sapiens)
- Construct: purchased Serva Electrophoresis, Germany
- Sequence (P08246 30-267): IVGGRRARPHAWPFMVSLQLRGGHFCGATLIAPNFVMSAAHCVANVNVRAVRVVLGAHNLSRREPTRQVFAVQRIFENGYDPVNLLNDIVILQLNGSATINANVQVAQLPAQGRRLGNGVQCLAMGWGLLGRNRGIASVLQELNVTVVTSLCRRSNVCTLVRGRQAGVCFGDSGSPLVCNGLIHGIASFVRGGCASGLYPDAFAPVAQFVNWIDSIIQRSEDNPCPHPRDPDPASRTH
- Test summary: Inhibition of human neutrophil elastase (hydrolysis of MeOSuc-AAPV-pNA)
- Assay type: biochemical
- Test conditions: substrate MeOSuc-AAPV-pNA 0.3 mM, enzyme 10 nM, 37° C., pH 8; read-out: Human neutrophil elastase (hNE) IC50
Where a SMILES comes first, the peptide text is derived from it. [ ]: non-standard residue; d: D form. Gly(octyl) = CCCCCCCC[C@H](N)C(=O)O; β3hQ = NC(=O)CC[C@H](N)CC(=O)O; hSer = N[C@@H](CCO)C(=O)O
In this section, each of the compounds is paired with its reported IC50.
// units = nM; emit number, no label

>>> assay_result("CCCCCCCC[C@@H]1NC(=O)[C@@H]2CCCN2C(=O)[C@H]2CCCN2C(=O)[C@H](CCOC)NC(=O)[C@H](CCCCN)NC(=O)[C@H](CCC(N)=O)NC(=O)[C@@H]2CCCN2C(=O)[C@@H]2CCCN2C(=O)[C@H]([C@@H](C)CC)NC(=O)[C@H](CO)NC(=O)[C@H](C)NC(=O)[C@H]([C@@H](C)O)NC(=O)[C@H](CCC(=O)O)NC1=O [Example 1] (cyclo([Gly(octyl)]ETASIPPQK[hSer](Me)[dP]P))")
4.8

Moving on to another compound below.
Prompt line: Please list IC50 recorded for the compound CCCCCCCC[C@@H]1NC(=O)[C@@H]2CCCN2C(=O)[C@H]2CCCN2C(=O)[C@H]([C@@H](C)O)NC(=O)[C@H](CCCCN)NC(=O)C[C@H](CCC(N)=O)NC(=O)[C@@H]2CCCN2C(=O)[C@@H]2CCCN2C(=O)[C@H]([C@@H](C)CC)NC(=O)[C@H](CO)NC(=O)[C@H](C)NC(=O)[C@H]([C@@H](C)O)NC(=O)[C@H](CCC(=O)O)NC1=O [Example 36] (cyclo([Gly(octyl)]ETASIPP[β3hQ]KT[dP]P))
Response line: 16.2

Values from patent US10273267B2
